Test system: Staphylococcus aureus ATCC 29213
Experiment: Antibacterial susceptibility testing, IC90 determination (broth microdilution, resazurin)
Format: cell-based
Conditions: Staphylococcus aureus, ATCC29213, S. aureus ATCC 29213; 90% inhibitory concentration for bacterial growth; read-out: STA (361.159) IC90
Decide using IC90 alone. Strictly below 3 µg/mL: t. Equal to or above 3 µg/mL: f.

Some solved entries appear below for comparison.
- MOLECULE: "O=C(Nc1ccc(/C=C/C(=O)N2CCC=C(c3ccccc3)CC2)cn1)c1ccccc1"
  LABEL: "t"
- MOLECULE: "CC(C)C(=O)Nc1ccc(/C=C/C(=O)N2CCC=C(c3ccccc3)CC2)cn1"
  LABEL: "f"
- MOLECULE: "O=C(Nc1ccc(/C=C/C(=O)N2CCC=C(c3ccccc3)CC2)cn1)c1ccccn1"
  LABEL: "f"

Please indicate whether the reported IC90 of "CC(=O)N1CC(=O)Nc2ncc(/C=C/C(=O)N3CCC=C(c4ccccc4)CC3)cc2C1" is strictly below 3 µg/mL. t

Please indicate whether the reported IC90 of CC(=O)N1CCN2Cc3cc(/C=C/C(=O)N4CCC=C(c5ccccc5)CC4)cnc3NC(=O)C2C1 (centres unmarked) is strictly below 3 µg/mL. t

Please indicate whether the reported IC90 of O=C(Nc1ccc(/C=C/C(=O)N2CCC=C(c3ccccc3)CC2)cn1)C1CCOC1 (centres unmarked) is strictly below 3 µg/mL. f

Please indicate whether the reported IC90 of "CN1CC(=O)Nc2ncc(/C=C/C(=O)N3CC=C(c4cccs4)CCC3)cc2C1" is strictly below 3 µg/mL. t

Please indicate whether the reported IC90 of "CC1(C(=O)Nc2ccc(/C=C/C(=O)N3CCC=C(c4ccccc4)CC3)cn2)CC1" is strictly below 3 µg/mL. t

###

System: Staphylococcus aureus ATCC 29213
Assay: Antibacterial susceptibility testing, IC90 determination (broth microdilution, resazurin)
Type: cell-based
Conditions: Staphylococcus aureus, ATCC29213, S. aureus ATCC 29213; 90% inhibitory concentration for bacterial growth; read-out: STA (361.159) IC90
Description: Y.2 In Vitro Method for Testing Compounds for Antibacterial Activity Against Various Bacterial Strains Preparation of Bacterial Suspensions for Susceptibility Testing The following bacteria were used: Staphylococcus aureus ATCC 29213, methicillin-resistant Staphylococcus aureus (MRSA) ATCC 700788 and Escherichia coli ATCC 35218. […]
QUANTITY NAME: IC90

IC90 on Staphylococcus aureus ATCC 29213 for "O=C(/C=C/c1ccc(NC(=O)C(F)(F)F)nc1)N1CCC=C(c2ccccc2)CC1" is 11.6 mg/L

IC90 on Staphylococcus aureus ATCC 29213 for "CC(=O)Nc1ccc(/C=C/C(=O)N2CC=C(c3ccccc3)CCC2)cn1" is 1.3 mg/L

IC90 on Staphylococcus aureus ATCC 29213 for "Cn1cnc(C(=O)Nc2ccc(/C=C/C(=O)N3CCC=C(c4ccccc4)CC3)cn2)c1" is 4.29 mg/L

IC90 on Staphylococcus aureus ATCC 29213 for "Cn1nccc1C(=O)Nc1ccc(/C=C/C(=O)N2CCC=C(c3ccccc3)CC2)cn1" is 0.92 mg/L

IC90 on Staphylococcus aureus ATCC 29213 for "O=C(Nc1ccc(/C=C/C(=O)N2CCC=C(c3ccccc3)CC2)cn1)C1CCCC1" is 6.29 mg/L

IC90 on Staphylococcus aureus ATCC 29213 for "COc1ccc(F)cc1C1=CCCN(C(=O)/C=C/c2cnc3c(c2)CNCC(=O)N3)CC1" is < 0.21 mg/L

IC90 on Staphylococcus aureus ATCC 29213 for "CN1CC(=O)Nc2ncc(/C=C/C(=O)N3CCC=C(c4ccccc4)CC3)cc2C1" is 0.5 mg/L

IC90 on Staphylococcus aureus ATCC 29213 for "O=C(Nc1ccc(/C=C/C(=O)N2CCC=C(c3ccccc3)CC2)cn1)c1cccnc1" is 0.4 mg/L

IC90 on Staphylococcus aureus ATCC 29213 for "COc1ccc(F)cc1C1=CCCN(C(=O)/C=C/c2cnc3c(c2)COC(=O)N3)CC1" is 0.38 mg/L

IC90 on Staphylococcus aureus ATCC 29213 for "Cc1cc(C(=O)Nc2ccc(/C=C/C(=O)N3CCC=C(c4ccccc4)CC3)cn2)no1" is 3.29 mg/L

IC90 on Staphylococcus aureus ATCC 29213 for "Nc1ccc(/C=C/C(=O)N2CCC=C(c3ccccc3)CC2)cn1" is 13.3 mg/L

IC90 on Staphylococcus aureus ATCC 29213 for "O=CNc1ccc(/C=C/C(=O)N2CCC=C(c3ccccc3)CC2)cn1" is 0.78 mg/L

IC90 on Staphylococcus aureus ATCC 29213 for "CN1CC(=O)Nc2ncc(/C=C/C(=O)N3CCC=C(c4cccs4)CC3)cc2C1" is 0.32 mg/L

IC90 on Staphylococcus aureus ATCC 29213 for "Cc1occc1C(=O)Nc1ccc(/C=C/C(=O)N2CCC=C(c3ccccc3)CC2)cn1" is 0.84 mg/L

IC90 on Staphylococcus aureus ATCC 29213 for "COc1ccc(F)cc1C1=CCCN(C(=O)/C=C/c2ccc(NC(=O)c3cccnc3)nc2)CC1" is 0.45 mg/L

IC90 on Staphylococcus aureus ATCC 29213 for "Cn1cc(C(=O)Nc2ccc(/C=C/C(=O)N3CCC=C(c4ccccc4)CC3)cn2)cn1" is 0.63 mg/L

IC90 on Staphylococcus aureus ATCC 29213 for "O=C(Nc1ccc(/C=C/C(=O)N2CCC=C(c3ccccc3)CC2)cn1)c1c[nH]cn1" is 1.26 mg/L
